targetUnderTest: T1, exemplary TAT frataxin fusion molecule (HIV-1, UniProt Q16595 1-210)
T1 construct: in the bridging assays biotinylated and sulfotagged forms were used; also called TAT-FXN fusion molecule; TAT FXN fusion molecule
T1 sequence: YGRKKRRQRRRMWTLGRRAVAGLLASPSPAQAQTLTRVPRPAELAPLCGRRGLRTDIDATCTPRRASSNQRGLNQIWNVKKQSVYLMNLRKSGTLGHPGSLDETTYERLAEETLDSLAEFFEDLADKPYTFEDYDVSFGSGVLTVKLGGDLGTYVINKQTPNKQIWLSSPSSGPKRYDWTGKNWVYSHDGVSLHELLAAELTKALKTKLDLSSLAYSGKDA
protocolText: PK sandwich ELISA in human plasma, antibody as capture, HRP anti-frataxin mAb detection
resultType: S/N at plasma conc. 1.60 ng/mL

[
  {
    "binder": "antibody 10-5 (antibody, V domains shown, Rabbit monoclonal) VH: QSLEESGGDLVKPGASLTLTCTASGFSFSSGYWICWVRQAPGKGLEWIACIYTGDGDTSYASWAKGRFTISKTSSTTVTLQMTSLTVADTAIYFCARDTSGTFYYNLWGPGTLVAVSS VL: DVVMTQTPSPVSAPVGGTVTINCQASQNIYSNLAWYQQKPGQPPKLLIYGASTLASGVSSRFKGSRSGTEFTLTISDLECADAATYYCQSYVYSSSTADTFGGGTKVVVE",
    "endpointResult": 2.9
  },
  {
    "binder": "antibody 10-12 (antibody, V domains shown, Rabbit monoclonal) VH: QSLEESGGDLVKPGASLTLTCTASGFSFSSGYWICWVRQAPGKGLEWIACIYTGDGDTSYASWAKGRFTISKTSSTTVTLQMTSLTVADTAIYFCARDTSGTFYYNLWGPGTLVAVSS VL: ELVLTQTASSVSAAVGGTVTISCQSSESVYKTNYLSWFQKKPGQPPKLLIYDASTLASGVPSRFSGSGSGTQFTLTISDLECDDAATYYCAGGYSDDINAFGGGTEVVVK",
    "endpointResult": 3
  },
  {
    "binder": "antibody 12-10 (antibody, V domains shown, Rabbit monoclonal) VH: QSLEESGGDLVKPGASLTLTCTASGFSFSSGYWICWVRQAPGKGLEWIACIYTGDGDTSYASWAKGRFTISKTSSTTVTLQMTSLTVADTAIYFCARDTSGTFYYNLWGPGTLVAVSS VL: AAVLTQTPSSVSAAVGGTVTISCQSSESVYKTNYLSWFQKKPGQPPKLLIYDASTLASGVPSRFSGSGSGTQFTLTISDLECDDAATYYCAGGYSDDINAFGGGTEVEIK",
    "endpointResult": 2.9
  }
]
